Listed here: items and their measured IC50.
Tested on: HTT
experiment.summary: HiBiT protein abundance assay, HTT (K562 HiBiT knock-in)
Type: cell-based, human
measurement.context: HiBiT knock-in K562 cells, 24 hours, top dose 10 μM
Experimental: Compounds described herein were used to screen for effects on quantitative protein abundance using a HiBit assay system (Promega). Quantitative protein abundance was determined by measuring the protein levels of HiBit-tagged protein targets expressed in cell culture via luminescence using the Nano-Glo HiBiT Lytic Detection System, which uses a split complementation assay format to reconstitute NanoBiT enzyme to generate a luminescent signal. […]

Lab entry: HTT assay, compound Cn1cc2cc(-c3ccc4nc(N5CCC(NC6CC6)C5)ccc4n3)c(O)cc2n1 (stereo not drawn) [Compound 158] , IC50 = < 100 nM

Lab entry: HTT assay, compound Cn1cc2c(O)c(-c3cc4ccc(C5CCNCC5)nc4cn3)ccc2n1 [Compound 106] , IC50 = 1000 to 10000 nM

Lab entry: HTT assay, compound Cn1cc2cc(-c3ccc4c(F)c(C5CCNCC5)ccc4n3)c(O)cc2n1 [Compound 115] , IC50 = 100 to 1000 nM

Lab entry: HTT assay, compound Cc1cn2nc(-c3ccc4nc(C5CCNCC5)ccc4n3)c(O)c2c(C)n1 [Compound 150] , IC50 = < 100 nM

Lab entry: HTT assay, compound Cc1nc2cc(O)c(-c3ccc4nc(N5CCC(NCC6CC6)C5)ccc4n3)cc2o1 (single isomer, unassigned) [Compound 291] , IC50 = < 100 nM

Lab entry: HTT assay, compound Cc1nc(-c2cc3cn(C)nc3c(C)c2O)nc2ccc(N3C[C@H](C)N[C@@H](C)C3)cc12 (single isomer, unassigned) [Compound 807] , IC50 = 100 to 1000 nM

Lab entry: HTT assay, compound CN1CCN(c2ccc3nc(-c4cc5cn(C)nc5cc4O)ccc3n2)CC1 [Compound 116] , IC50 = 1000 to 10000 nM

Lab entry: HTT assay, compound Cc1nc2cc(O)c(-c3ccc4nc(N5CC[C@H](N[C@H]6C[C@@H](F)C6)C5)ccc4n3)cc2o1 (stereo in doubt) [Compound 396] , IC50 = < 100 nM

Lab entry: HTT assay, compound Cc1cn2cc(-c3ccc4nc(N5CCC(NC(C)(C)C)C5)ccc4n3)nc(C)c2n1 (stereo not drawn) [Compound 206] , IC50 = 1000 to 10000 nM

Lab entry: HTT assay, compound C[C@H]1C[C@H](c2ccc3nc(-c4cc5cn(C)nc5cc4O)ccc3n2)CCN1 [Compound 139] , IC50 = 100 to 1000 nM

Lab entry: HTT assay, compound CNC(=O)c1nc(-c2cc3cn(C)nc3c(C)c2O)nc2ccc(N3C[C@@H](C)N[C@H](C)C3)cc12 (single isomer, unassigned) [Compound 653] , IC50 = < 100 nM

Lab entry: HTT assay, compound Cn1cnc2cc(-c3ccc4nc(N5CCC(NC(C)(C)C)C5)ccc4n3)c(O)cc2c1=O (stereo not drawn) [Compound 167] , IC50 = > 10000 nM

Lab entry: HTT assay, compound Cn1cc2nc(-c3ccc4nc(N5CCC(NC(C)(C)C)C5)ccc4n3)c(F)cc2n1 (stereo not drawn) [Compound 207] , IC50 = 1000 to 10000 nM

Lab entry: HTT assay, compound COc1cc2ccncc2cc1-c1ccc2nc(N3CCC(NC(C)(C)C)C3)ccc2n1 (stereo not drawn) [Compound 161] , IC50 = > 10000 nM

Lab entry: HTT assay, compound Cc1c(O)c(-c2ncc3nc([C@H]4CCNC4)ccc3n2)cc2cn(C)nc12 [Compound 399] , IC50 = > 10000 nM
